Test system: HCT-116
TEST_SUMMARY: Cytotoxicity against human HCT116 cells after 48 hrs by MTT assay
Assay type: functional, cell-based
ASSAY_CONDITIONS: HCT-116, 48 h
Can you tell me IC50 for the items I'm about to list?

Query: Bench note: what IC50 did `C[C@@H]1O[C@@H](O[C@H]2[C@H](O[C@H]3CC[C@@]4(C)C(=CC[C@@H]5[C@@H]4CC[C@]4(C)C(=O)OC[C@@H]54)C3)O[C@H](CO)[C@@H](O)[C@@H]2O)[C@H](O)[C@H](O)[C@H]1O` show?
Response: > 40 µM

Query: Which IC50 is reported for this compound? `COC(=O)/C(C)=C1\C(=O)C[C@H]2[C@@H]3CC=C4C[C@@H](O[C@@H]5O[C@H](CO)[C@@H](O)[C@H](O)[C@H]5O[C@@H]5O[C@@H](C)[C@H](O)[C@@H](O)[C@H]5O)CC[C@]4(C)[C@H]3CC[C@]12C`
Response: > 40 µM

Query: # get_value(readout='IC50', item= Cc1c(CCC(C)CO)ccc2c1[C@@]1(C)CC[C@H]3[C@@H](CC=C4C[C@@H](O[C@@H]5O[C@H](CO)[C@@H](O)[C@H](O)[C@H]5O[C@@H]5O[C@@H](C)[C@H](O)[C@@H](O)[C@H]5O)CC[C@@]43C)[C@@H]1C2 (some centres undefined) )
Response: > 40 µM

Query: Could you tell me which IC50 is on file for `CC1=C2[C@](O)(C[C@H]3[C@@H]4CC=C5C[C@@H](O[C@@H]6O[C@H](CO)[C@@H](O[C@@H]7O[C@@H](C)[C@H](O)[C@@H](O)[C@H]7O)[C@H](O)[C@H]6O[C@@H]6O[C@@H](C)[C@H](O)[C@@H](O)[C@H]6O)CC[C@]5(C)[C@H]4CC[C@]23C)[C@@H](C[C@@H](C)CO[C@@H]2O[C@H](CO)[C@@H](O)[C@H](O)[C@H]2O)C1=O` ?
Response: > 40 µM
